test: Drug level in tumor of human MDA-MB-435 cell-xenograft athymic nude mouse model at 10 uM, iv by PET analysis; assay type: ADME, organism-based, Neoplasm; details: athymic nude mouse (human MDA-MB-435 xenograft), in vivo
Where a SMILES comes first, the peptide text is derived from it. Bridges are numbered along the chain shown (N, C = ends).
readout label: Drug uptake

compound	result
CC(=O)N[C@H](CSC1CC(=O)N(CCNC(=O)CCCCC[N+]2=C(/C=C/C3=C(Oc4ccc(S(=O)(=O)[O-])cc4)C(=C/C=C4/N(CCCCS(=O)(=O)[O-])c5ccc(S(=O)(=O)[O-])cc5C4(C)C)/CCC3)C(C)(C)c3cc(S(=O)(=O)[O-])ccc32)C1=O)C(=O)N[C@H]1CSSC[C@@H](C(N)=O)NC(=O)[C@H](CC(=O)O)NC(=O)[C@@H]2CCCN2C(=O)CNC(=O)[C@H](CCCCN)NC(=O)[C@H](CC(=O)O)NC(=O)CNC(=O)[C@H](CCCNC(=N)N)NC1=O.[Na+].[Na+].[Na+] (stereo partly drawn)	Active
CC1(C)C(/C=C/C2=C(Oc3ccc(S(=O)(=O)[O-])cc3)C(=C/C=C3/N(CCCCS(=O)(=O)[O-])c4ccc(S(=O)(=O)[O-])cc4C3(C)C)/CCC2)=[N+](CCCCCC(=O)NCCN2C(=O)CC(SC[C@@H](NC(=O)CN3CCN(CC(=O)O)CCN(CC(=O)O)CCN(CC(=O)O)CC3)C(=O)N[C@H]3CSSC[C@@H](C(N)=O)NC(=O)[C@H](CC(=O)O)NC(=O)[C@@H]4CCCN4C(=O)CNC(=O)[C@H](CCCCN)NC(=O)[C@H](CC(=O)O)NC(=O)CNC(=O)[C@H](CCCNC(=N)N)NC3=O)C2=O)c2ccc(S(=O)(=O)[O-])cc21.[Na+].[Na+].[Na+] (stereo partly drawn)	Active
CC(=O)N[C@@H](CS)C(=O)N[C@H]1CSSC[C@@H](C(N)=O)NC(=O)[C@H](CC(=O)O)NC(=O)[C@@H]2CCCN2C(=O)CNC(=O)[C@H](CCCCN)NC(=O)[C@H](CC(=O)O)NC(=O)CNC(=O)[C@H](CCCNC(=N)N)NC1=O (Ac-CCRGDKGPDC-NH2; disulfide 2-10)	Active
